- test_name: LTI-291-001 single ascending dose study: plasma pharmacokinetics and food effect
- Type: in vivo, human
- measurement_parameters: human, plasma, oral, across fasted and fed groups; read-out: Geometric mean t1/2
quantity_measured: half-life

compound	obs_value
CCCCCO[C@H]1CC[C@H](NC(=O)c2cnn3c(C)cc(C)nc23)CC1 [Compound A]	21.2 to 23.4 h

* * *

- test_name: LTI-291-002 multiple ascending dose study: plasma and CSF pharmacokinetics
- Format: in vivo, human
- measurement_parameters: human, plasma, oral, 30 mg, 30 mg daily, dose 1, geometric mean

molecule	AUC(0-inf) (ng·h/mL)
CCCCCO[C@H]1CC[C@H](NC(=O)c2cnn3c(C)cc(C)nc23)CC1 [Compound A]	22600

* * *

- test_name: LTI-291-001 single ascending dose study: plasma pharmacokinetics and food effect
- Type: in vivo, human
- measurement_parameters: human, plasma, po, 10 mg, 10 mg fasted, single oral dose, geometric mean; read-out: Vz/F

compound	unit_of_measure	Vd/F
CCCCCO[C@H]1CC[C@H](NC(=O)c2cnn3c(C)cc(C)nc23)CC1 [Compound A]	L	42.4

* * *

- test_name: clinical
- measurement_parameters: both, human, in vivo, geometric mean t1/2
quantity_measured: half-life (h)

compound	unit_of_measure	obs_value
N[C@@H](Cc1ccc(O)c(O)c1)C(=O)O [Levodopa, levodopa]	h	1.7

* * *

- test_name: LTI-291-002 multiple ascending dose study: plasma and CSF pharmacokinetics
- Format: in vivo, human
- measurement_parameters: human, plasma, oral, 10 mg, 10 mg daily, dose 1, geometric mean; read-out: t½ (converted)

molecule	half-life, h
CCCCCO[C@H]1CC[C@H](NC(=O)c2cnn3c(C)cc(C)nc23)CC1	20.7

* * *

- test_name: BIA 28-6156-106 mass balance recovery, metabolite profiling and PK of 14C-Compound A
- Format: in vivo, human
- measurement_parameters: male, human, plasma; single oral dose of 60 mg 14C BIA-28; read-out: plasma AUC0-last, geometric mean
- Experimental: This was a Phase 1, single-dose, mass balance recovery study of ^14C-Compound A in 1 cohort of healthy male subjects, aged 30 to 65 years. A total of 6 subjects received a single oral dose of 60 mg Compound A, containing not more than 3.7 MBq ^14C, under fasted conditions. […]

compound	unit_of_measure	AUC(0-t)
CCCCCO[C@H]1CC[C@H](NC(=O)c2cnn3c(C)cc(C)nc23)CC1 [Compound A]	ng·h/mL	41700

* * *

- test_name: LTI-291-003 multiple dose study in GBA-PD: plasma and CSF pharmacokinetics
- Format: in vivo, human
- measurement_parameters: human, CSF and plasma, oral; 60 mg, after the 28th daily dose; read-out: CSF-to-plasma concentration ratio, mean (SD)
quantity_measured: Kp at 4 h

molecule	obs_value
CCCCCO[C@H]1CC[C@H](NC(=O)c2cnn3c(C)cc(C)nc23)CC1 [Compound A]	0.0115

* * *

- test_name: LTI-291-002 multiple ascending dose study: plasma and CSF pharmacokinetics
- Format: in vivo, human
- measurement_parameters: human, plasma, oral, 3 mg, 3 mg daily, dose 14, geometric mean

molecule	AUC(0-inf), ng·h/mL
CCCCCO[C@H]1CC[C@H](NC(=O)c2cnn3c(C)cc(C)nc23)CC1	7560

* * *

- test_name: LTI-291-003 multiple dose study in GBA-PD: plasma and CSF pharmacokinetics
- Assay type: in vivo, human
- measurement_parameters: human, plasma, oral, 10 mg, 10 mg daily, dose 28, GBA-PD, geometric mean

molecule	unit_of_measure	Cmax
CCCCCO[C@H]1CC[C@H](NC(=O)c2cnn3c(C)cc(C)nc23)CC1	ng/mL	520

* * *

- test_name: LTI-291-001 single ascending dose study: plasma pharmacokinetics and food effect
- Format: in vivo, human
- measurement_parameters: human, plasma, po, 3 mg, 3 mg fasted, single oral dose, geometric mean; read-out: Vz/F
quantity_measured: Vd/F (L)

compound	obs_value
CCCCCO[C@H]1CC[C@H](NC(=O)c2cnn3c(C)cc(C)nc23)CC1 [Compound A]	40.5

* * *

- test_name: LTI-291-002 multiple ascending dose study: plasma and CSF pharmacokinetics
- Assay type: in vivo, human
- measurement_parameters: human, plasma, oral, 10 mg, 10 mg daily, dose 7, geometric mean; read-out: AUC0-last

molecule	AUC(0-t) [ng·h/mL]
CCCCCO[C@H]1CC[C@H](NC(=O)c2cnn3c(C)cc(C)nc23)CC1	7820

* * *

- test_name: LTI-291-001 single ascending dose study: plasma pharmacokinetics and food effect
- Type: in vivo, human
- measurement_parameters: human, plasma, po, 30 mg, 30 mg fasted, single oral dose, geometric mean
quantity_measured: AUC(0-t)

compound	quantity_measured	obs_value
CCCCCO[C@H]1CC[C@H](NC(=O)c2cnn3c(C)cc(C)nc23)CC1 [Compound A]	AUC(0-t)	18400 ng·h/mL

* * *

- test_name: LTI-291-001 single ascending dose study: plasma pharmacokinetics and food effect
- Assay type: in vivo, human
- measurement_parameters: human, plasma, po, 10 mg, 10 mg fed, single oral dose, geometric mean
quantity_measured: AUC(0-t) (ng·h/mL)

molecule	quantity_measured	obs_value
CCCCCO[C@H]1CC[C@H](NC(=O)c2cnn3c(C)cc(C)nc23)CC1	AUC(0-t)	5860

* * *

- test_name: LTI-291-001 single ascending dose study: plasma pharmacokinetics and food effect
- Assay type: in vivo, human
- measurement_parameters: human, plasma, po, 90 mg, 90 mg fasted, single oral dose, geometric mean; read-out: t1/2 (converted)
- Procedure: This study was a first-in-human Phase 1, randomized, double-blind, placebo-controlled, single-ascending dose study to evaluate the safety and tolerability, PK, and PD of escalating single oral doses of Compound A (3, 10, 30, and 90 mg) in 4 cohorts of healthy subjects. […] The effect of food on the PK of Compound A was evaluated by administering a second single oral dose of 10 mg Compound A to the subjects in Cohort 2 on a separate occasion, after subjects had completed a high-fat breakfast. […]

molecule	half-life, h
CCCCCO[C@H]1CC[C@H](NC(=O)c2cnn3c(C)cc(C)nc23)CC1	23.3

* * *

- test_name: LTI-291-002 multiple ascending dose study: plasma and CSF pharmacokinetics
- Assay type: in vivo, human
- measurement_parameters: human, plasma, oral, 60 mg, 60 mg daily, dose 1, geometric mean; read-out: t½ (converted)

molecule	half-life / h
CCCCCO[C@H]1CC[C@H](NC(=O)c2cnn3c(C)cc(C)nc23)CC1	25.1

* * *

- test_name: BIA 28-6156-107 DDI: effect of single-dose Compound A on single-dose PK of carbidopa-levodopa
- measurement_parameters: both, human, in vivo, oral, Median Tmax, carbidopa; coadministered with Compound A

molecule	unit_of_measure	Tmax
C[C@@](Cc1ccc(O)c(O)c1)(NN)C(=O)O [carbidopa]	h	2

* * *

- test_name: clinical
- measurement_parameters: both, human, plasma, 60 mg, AUC0-t, 60 mg Compound A alone, Sinemet portion, geometric mean
quantity_measured: AUC(0-t)

molecule	quantity_measured	obs_value
CCCCCO[C@H]1CC[C@H](NC(=O)c2cnn3c(C)cc(C)nc23)CC1	AUC(0-t)	22700 ng·h/mL

* * *

- test_name: LTI-291-002 multiple ascending dose study: plasma and CSF pharmacokinetics
- Assay type: in vivo, human
- measurement_parameters: human, plasma, oral, 10 mg, 10 mg daily, dose 1, geometric mean
- Procedure: This study was a phase 1, randomized, double-blind, placebo-controlled, multiple ascending dose study of Compound A in 4 cohorts of middle-aged to elderly healthy participants (aged 52 to 75 years). […] Pharmacokinetic parameters were determined for each dose at Day 1, Day 7, and Day 14. Cerebrospinal fluid samples for Compound A concentrations were measured before the first dose and 4 hours after the last dose for each dose level. […]
quantity_measured: AUC(0-inf) (ng·h/mL)

compound	unit_of_measure	obs_value
CCCCCO[C@H]1CC[C@H](NC(=O)c2cnn3c(C)cc(C)nc23)CC1 [Compound A]	ng·h/mL	6130

* * *

- test_name: LTI-291-001 single ascending dose study: plasma pharmacokinetics and food effect
- Assay type: in vivo, human
- measurement_parameters: human, plasma, po, 3 mg, 3 mg fasted, single oral dose, geometric mean

compound	Cmax
CCCCCO[C@H]1CC[C@H](NC(=O)c2cnn3c(C)cc(C)nc23)CC1 [Compound A]	109 ng/mL

* * *

- test_name: LTI-291-002 multiple ascending dose study: plasma and CSF pharmacokinetics
- Type: in vivo, human
- measurement_parameters: human, plasma, oral, 3 mg, 3 mg daily, dose 14, geometric mean; read-out: AUC0-last

molecule	AUC(0-t), ng·h/mL
CCCCCO[C@H]1CC[C@H](NC(=O)c2cnn3c(C)cc(C)nc23)CC1	4510

* * *

- test_name: clinical
- measurement_parameters: both, human, plasma, 60 mg

molecule	unit_of_measure	Tmax
CCCCCO[C@H]1CC[C@H](NC(=O)c2cnn3c(C)cc(C)nc23)CC1	h	2

* * *

- test_name: LTI-291-002 multiple ascending dose study: plasma and CSF pharmacokinetics
- Format: in vivo, human
- measurement_parameters: human, plasma, oral, 30 mg, 30 mg daily, dose 14, geometric mean; read-out: t½ (converted)
quantity_measured: half-life (h)

molecule	quantity_measured	unit_of_measure	obs_value
CCCCCO[C@H]1CC[C@H](NC(=O)c2cnn3c(C)cc(C)nc23)CC1	half-life	h	75
